B1: glmS ribozyme (parent)
chain: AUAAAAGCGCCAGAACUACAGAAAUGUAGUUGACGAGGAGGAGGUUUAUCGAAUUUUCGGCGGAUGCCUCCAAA

Variants of: B1
Assay: self-cleavage kobs at 640 uM GlcN6P; higher = faster cleavage; RNA array
Conditions: with glucosamine-6-phosphate
Fewer inactive variants are shown than the library holds.
reportedProperty: self-cleavage kobs at 640 uM GlcN6P

Examples with answers:
{"variantDesignation": "G9C G32U A39U G41U", "self-cleavage kobs at 640 uM GlcN6P": "< 1e-05 s⁻¹"}
{"variantDesignation": "U49A A52U U65A U69G", "self-cleavage kobs at 640 uM GlcN6P": "0.00031 s⁻¹"}
{"variantDesignation": "G60U U69A", "self-cleavage kobs at 640 uM GlcN6P": "< 1e-05 s⁻¹"}
{"variantDesignation": "C34G G51C", "self-cleavage kobs at 640 uM GlcN6P": "< 1e-05 s⁻¹"}
{"variantDesignation": "A53G U55G", "self-cleavage kobs at 640 uM GlcN6P": "0.00936 s⁻¹"}

Quick one: give me self-cleavage kobs at 640 uM GlcN6P for each item below, same order please.
1. U47C G59U
2. A52C G59A U69G
3. U46A U47C

**A:**
["< 1e-05 s⁻¹", "< 1e-05 s⁻¹", "0.00034 s⁻¹"]

Items follow; give self-cleavage kobs at 640 uM GlcN6P for each.
1. A6U C50G U55A C71U
2. G9A G37C U54G G60U C68U
3. U30C G32U C34G C50G
4. A14U C70U C71G
5. A39U C67G

**A:**
["0.00151 s⁻¹", "< 1e-05 s⁻¹", "8.64e-05 s⁻¹", "6.53e-05 s⁻¹", "0.00221 s⁻¹"]
